Measured GI50 of individual entries
- System: RPMI-8226 leukemia
- experimental-details: NCI tumour cell line growth inhibition, 48 h

chemical-structure: COc1cc(/C=C2\C(=O)N(Cc3ccc(Cl)cc3)c3ccccc32)cc(OC)c1OC
GI50: 645 nM

For the record O=C(CS(=O)(=O)c1nc2ccccc2nc1-c1ccccc1)Nc1ccc(F)cc1 , what value of GI50 is listed for RPMI-8226 leukemia?
29100 nM

// fetch RPMI-8226 leukemia GI50 for COc1cc2oc(-c3cccc(C(=O)Nc4ccc(Cl)cc4)c3)cc(=O)c2c(OC)c1OC
490 nM

Recorded GI50 for CO[C@H]1C[C@@H]2CC[C@@H](C)[C@@](O)(O2)C(=O)C(=O)N2CCCC[C@H]2C(=O)O[C@H]([C@H](C)C[C@@H]2CC[C@@H](OC(=O)C(C)(CO)CO)[C@H](OC)C2)CC(=O)[C@H](C)/C=C(\C)[C@@H](O)[C@@H](OC)C(=O)[C@H](C)C[C@H](C)\C=C/C=C/C=C/1C with RPMI-8226 leukemia, please?
1.02 nM

Form field - read-out: GI50; system: RPMI-8226 leukemia; submitted item: O=C1Nc2ccc(Cl)cc2/C1=C\c1c(-c2ccc(Cl)cc2)nc2sc(C3CC3)nn12
18100 nM

src = PubChem BioAssay (NCI)
